Readings of pKi for the listed compounds
biological target: strychnineinsensitive glycine recognition site (NMDA receptor-ion channel complex) (Rattus norvegicus, UniProt P35439); construct: Synaptic plasma membranes (SPM) were prepared from rat forebrain; from tissue; host or cells: rat forebrain synaptic plasma membranes; assay: Glycine binding assay, [3H]glycine, synaptic plasma membranes; conditions: 10 nM [3H]glycine, pH 7.4, rat forebrain SPM; read-out: Ki apparent, Gly
pKi: −log10 of the molar value.

>>> result_value("O=C(O)c1cc2cc(Br)ccc2[nH]1 [compound 16, 5-bromoindole-2-carboxylic acid]")
"< 4.00"
>>> result_value("O=C(Cc1c(C(=O)O)[nH]c2cc(Cl)ccc12)NCCc1ccccc1 [compound 45]")
6.33
>>> result_value("O=C(O)c1[nH]c2cc(Cl)ccc2c1O [Compound No. 11]")
"< 4.00"
>>> result_value("O=C(O)c1[nH]c2ccccc2c1CCO [compound 20]")
"< 5.00"
>>> result_value("O=C(O)c1cc2c(OCc3ccccc3)cccc2[nH]1 [compound 27, 4-benzyloxyindole-2-carboxylic acid]")
"< 4.70"
>>> result_value("O=C(O)CCCCc1c(C(=O)O)[nH]c2ccccc12 [compound 9, 2-carboxy-3-indolepentanoic acid]")
"< 4.00"
>>> result_value("CCOC(=O)Cc1c(C(=O)OCCCN(C)C)[nH]c2cc(Cl)ccc12 [compound 34]")
"< 4.52"
>>> result_value("Cc1ccc2[nH]c(C(=O)O)cc2c1 [compound 17, 5-methylindole-2-carboxylic acid]")
"< 4.00"
>>> result_value("O=C(O)Cc1c(C(=O)O)[nH]c2ccc(Cl)cc12 [Compound No. 3, 2-carboxy-5-chloro-3-indoleacetic acid]")
4.93
>>> result_value("O=C(O)c1cc2c(O)cccc2[nH]1 [compound 28, 4-hydroxyindole-2-carboxylic acid]")
"< 4.70"

Input: # lookup: pKi of COc1ccc2[nH]c(C(=O)O)cc2c1 [compound 18, 5-methoxyindole-2-carboxylic acid]
Output: < 4.00

Input: # lookup: pKi of O=C(O)Cc1c(C(=O)O)[nH]c2ccc(Br)cc12 [compound 4, 5-bromo-2-carboxy-3-indoleacetic acid]
Output: 4.58

Input: # lookup: pKi of CC(C)OC(=O)Cc1c(C(=O)O)[nH]c2cc(Cl)ccc12 [Compound No. 35]
Output: 5.41

* * *

molecular target: strychnineinsensitive glycine recognition site (NMDA receptor-ion channel complex) (Rattus norvegicus, UniProt P35439); construct: Synaptic plasma membranes (SPM) were prepared from rat forebrain; from tissue; host or cells: rat forebrain synaptic plasma membranes; test: Glycine binding assay, [3H]glycine, synaptic plasma membranes; conditions: 10 nM [3H]glycine, pH 7.4, rat forebrain SPM; read-out: Ki apparent, Gly
measured-endpoint: Ki (µM)

1: O=C(Cc1c(C(=O)O)[nH]c2cc(Cl)ccc12)NCCO
2: NC(=O)Cc1c(C(=O)O)[nH]c2cc(Cl)ccc12 [compound 37, 2-carboxy-6-chloro-3-indoleacetamide]
Input: Could you tell me which of these two has the smaller Ki figure? First: 1 Second: 2 Label of pick, please.
Output: 2
(2: 1.2 µM, 1: 11.4 µM)

Data provenance is patent US5229413A.
